- System: rat Monoamine Oxidase, MAO-A, Central (MAOAC), gene 29253
- assay_remarks: NVS_ENZ_rMAOAC: NovaScreen (NVS) Enzymatic Assay for rat Monoamine Oxidase, MAO-A, Central (MAOAC) (AID 2283243);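 note: potency refers to inhibition seen as signal drop below DMSO baseline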
- Experimental: NVS_ENZ_rMAOAC is a biochemical, single-readout assay that uses extracted gene-proteins from Rat brain in a tissue-based cell-free assay. Measurements were taken 1.5 hours after chemical dosing in a 96-well plate.NVS_ENZ_rMAOAC is one of one assay component(s) measured or calculated from the NVS_ENZ_rMAOAC assay. […] This assay endpoint, NVS_ENZ_rMAOAC, was analyzed in the positive analysis fitting direction relative to DMSO as the negative control and baseline of activity. […]
Calls of active or inactive are those of the source. Rule for the calls: active = hit-call score of the fitted dose curve at least 0.9, where 1 is the maximum; inconclusive = response in the unintended direction; inactive = score below 0.9.
Outcome codes: active, inactive

{"compound": "CC(=O)Nc1ccc(N=Nc2cc(C)ccc2O)cc1", "target_desc": "rat Monoamine Oxidase, MAO-A, Central (MAOAC), gene 29253", "assigned_label": "active"}
{"compound": "O=C1c2ccc(O)c(O)c2C(=O)c2c(O)ccc(O)c21", "target_desc": "rat Monoamine Oxidase, MAO-A, Central (MAOAC), gene 29253", "assigned_label": "inactive"}
{"compound": "CN(C)C(=O)Nc1ccc(Cl)c(Cl)c1", "target_desc": "rat Monoamine Oxidase, MAO-A, Central (MAOAC), gene 29253", "assigned_label": "active"}
{"compound": "Cc1nc(-c2ccc3c(c2)CCN(CCC2CCC(NC(=O)/C=C/c4ccc(F)cc4)CC2)CC3)no1 (configuration not stated)", "target_desc": "rat Monoamine Oxidase, MAO-A, Central (MAOAC), gene 29253", "assigned_label": "inactive"}
{"compound": "CCCCCCCC(=O)OCC", "target_desc": "rat Monoamine Oxidase, MAO-A, Central (MAOAC), gene 29253", "assigned_label": "active"}
{"compound": "O=S1(=O)CC(Cl)(Cl)C(Cl)(Cl)C1", "target_desc": "rat Monoamine Oxidase, MAO-A, Central (MAOAC), gene 29253", "assigned_label": "inactive"}
{"compound": "O=C(O)c1cccc(C[C@@H]2COc3ccc(OCc4nc5cc(F)ccc5s4)cc3[C@@H]2O)c1", "target_desc": "rat Monoamine Oxidase, MAO-A, Central (MAOAC), gene 29253", "assigned_label": "active"}
{"compound": "Cc1cc(C)c(C=O)c(C)c1", "target_desc": "rat Monoamine Oxidase, MAO-A, Central (MAOAC), gene 29253", "assigned_label": "active"}
{"compound": "Oc1ccc(C(c2ccc(O)cc2)C(Cl)(Cl)Cl)cc1", "target_desc": "rat Monoamine Oxidase, MAO-A, Central (MAOAC), gene 29253", "assigned_label": "inactive"}
{"compound": "N#CSCSc1nc2ccccc2s1", "target_desc": "rat Monoamine Oxidase, MAO-A, Central (MAOAC), gene 29253", "assigned_label": "active"}
{"compound": "CCOC(=O)O[C@H](C)OC(=O)c1ccc2c(c1)cc(C(=O)NC1CCN(C(C)C)CC1)n2Cc1cc(-c2ccc(Cl)s2)on1", "target_desc": "rat Monoamine Oxidase, MAO-A, Central (MAOAC), gene 29253", "assigned_label": "active"}
{"compound": "Oc1cccc2c(O)cccc12", "target_desc": "rat Monoamine Oxidase, MAO-A, Central (MAOAC), gene 29253", "assigned_label": "active"}
{"compound": "CCCCCCCCCCCCCCCCO", "target_desc": "rat Monoamine Oxidase, MAO-A, Central (MAOAC), gene 29253", "assigned_label": "inactive"}
{"compound": "Clc1cc(Cl)c2c(c1)N=C1CCCCCN1C2", "target_desc": "rat Monoamine Oxidase, MAO-A, Central (MAOAC), gene 29253", "assigned_label": "active"}
{"compound": "CCOC(=O)CC(CC(=O)OCC)(OC(C)=O)C(=O)OCC", "target_desc": "rat Monoamine Oxidase, MAO-A, Central (MAOAC), gene 29253", "assigned_label": "active"}
{"compound": "CC(=O)CCc1ccc(O)cc1", "target_desc": "rat Monoamine Oxidase, MAO-A, Central (MAOAC), gene 29253", "assigned_label": "active"}
{"compound": "CCCCCCC(C)OC(=O)COc1nc(F)c(Cl)c(N)c1Cl (configuration not stated)", "target_desc": "rat Monoamine Oxidase, MAO-A, Central (MAOAC), gene 29253", "assigned_label": "inactive"}
{"compound": "C#CC(O)CCC (configuration not stated)", "target_desc": "rat Monoamine Oxidase, MAO-A, Central (MAOAC), gene 29253", "assigned_label": "inactive"}
{"compound": "C=CC(=O)OCCN(CC)CC", "target_desc": "rat Monoamine Oxidase, MAO-A, Central (MAOAC), gene 29253", "assigned_label": "inactive"}
{"compound": "O=[N+]([O-])c1ccc(O)cc1C(F)(F)F", "target_desc": "rat Monoamine Oxidase, MAO-A, Central (MAOAC), gene 29253", "assigned_label": "active"}
{"compound": "Cn1c(=O)[nH]c2ncn(C)c2c1=O", "target_desc": "rat Monoamine Oxidase, MAO-A, Central (MAOAC), gene 29253", "assigned_label": "active"}
{"compound": "Oc1ccc2c(c1)-c1ccccc1C2", "target_desc": "rat Monoamine Oxidase, MAO-A, Central (MAOAC), gene 29253", "assigned_label": "active"}
{"compound": "O=C1c2ccccc2C(=O)c2c(O)ccc(O)c21", "target_desc": "rat Monoamine Oxidase, MAO-A, Central (MAOAC), gene 29253", "assigned_label": "active"}
{"compound": "CN(CCOc1ccc(CC2SC(=O)NC2=O)cc1)c1ccccn1 (configuration not stated)", "target_desc": "rat Monoamine Oxidase, MAO-A, Central (MAOAC), gene 29253", "assigned_label": "active"}
{"compound": "CCC(=O)OC/C=C(\\C)CCC=C(C)C", "target_desc": "rat Monoamine Oxidase, MAO-A, Central (MAOAC), gene 29253", "assigned_label": "inactive"}
{"compound": "CCCCCc1ccc(O)cc1", "target_desc": "rat Monoamine Oxidase, MAO-A, Central (MAOAC), gene 29253", "assigned_label": "active"}
{"compound": "O=C(c1ccc(O)cc1O)c1ccc(O)cc1O", "target_desc": "rat Monoamine Oxidase, MAO-A, Central (MAOAC), gene 29253", "assigned_label": "active"}
